tested on: Fibrinogen (Alexa647-labelled); experiment: fibrinogen binders on compound microarrays, profiling panel, artefact control for SMM control-protein annotation, biochemical, small-molecule microarray, 635/667 nm fluorescence (AID 1131); details: fibrinogen-A647 binding fluorescence, higher = more signal;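 further: z-score merges 667 nm fluorescence with per-spot signal-to-noise over triplicate slides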
measurement_kind: composite z-score
One number for each entry.

These recorded examples may help you get a feel for the data.
compound	composite z-score
COCCCNC(=O)[C@@H]1c2ccccc2C(=O)N(Cc2ccccc2Cl)[C@H]1c1ccc(CO)cc1	0.381
CO[C@H]1O[C@H](CO)[C@@H](OC(=O)Nc2ccc(Oc3ccccc3)cc2)[C@H](OC(=O)Nc2ccc3c(c2)OCO3)[C@H]1OC(=O)Nc1ccc2c(c1)OCO2	0.933

Value sought for every listed compound: composite z-score.
1. COc1cc(Br)cc(C(O)C2C=CC3C(=O)N(C)C(=O)C3N2N2CCCCC2)c1OC (stereo unspecified)
2. COC(=O)[C@@]1(Cc2ccc(F)cc2)[C@H]2c3cc(C(=O)N(C)C)n(Cc4cc(F)c(F)c(F)c4)c3C[C@H]2CN1C(=O)c1ccccc1
3. O=C1C2C=CC(C(O)CCc3ccccc3)N(Nc3ccccc3F)C2C(=O)N1c1ccccc1 (stereo unspecified)

[-0.83, 0.711, 0.434]

Value sought for every listed compound: composite z-score.
1. COC(=O)[C@@]1(Cc2ccc(F)cc2)[C@H]2c3cc(C(=O)N4CCCC4)n(CCCNc4ncc(C(F)(F)F)cc4Cl)c3C[C@H]2CN1C(=O)c1ccccc1
2. NCCCCCNC(=O)[C@@H]1C[C@@H]2C(=O)N[C@@H](Cc3ccccc3)C(=O)N2[C@@H]1c1ccc(O)cc1
3. CO[C@H]1O[C@H](CO)[C@@H](OC(=O)Nc2cccc(F)c2)[C@H](OC(=O)Nc2ccccc2)[C@@H]1OC(=O)Nc1ccccc1

0.817
0.89
0.973

Value sought for every listed compound: composite z-score.
1. C[C@H]1C2[C@H](Cc3ccccc3)NC(=O)[C@]23C(=O)N[C@H](Cc2ccccc2)C(=O)N2CCC[C@H]2C(=O)NC/C=C\C/C=C/C3[C@@H]2O[C@]12C (stereo partly specified)
2. C=C[C@@H](COC(=O)OC(C)(C)C)N(Cc1ccc(OC)cc1)S(=O)(=O)c1ccc(Br)cc1
3. CN(C)CCCC[C@@H]1NC(=O)[C@@H]2C[C@H](C(=O)NCCCCCCN)[C@H](c3cccc(OCCO)c3)N2C1=O
4. C[N+](C)(C)CCCCNC(=O)[C@H]1C[C@H]2C(=O)N3CCC[C@H]3C(=O)N2[C@H]1c1cccc(OCCO)c1
5. O=C(NCCN1CCOCC1)C1N=C(c2ccc(OCCCO)cc2)N(c2ccccc2)O1 (stereo unspecified)

1. 0.354
2. 0.731
3. 0.936
4. -0.944
5. 0.545

Value sought for every listed compound: composite z-score.
1. C=C(CCCC)/C(=C/C[C@H](OC(C)=O)c1ccccc1OCCO)c1cc(C(=O)OC)ccc1OC
2. CCCC[C@@H]1C[C@H]1[C@@H](NC(=O)C(C)(C)C)c1ccc(C(F)(F)F)cc1
3. O=C1[C@@]23C=C(Br)[C@H](C[C@@H]2CCOC3)[C@@]12CO2

1: -0.438; 2: -0.27; 3: 0.332

---

system: Human papillomavirus type 1a protein E7 (residues 44-93); assay: HPV1a E7 fragment binders on microarrays, primary screen, biochemical, small-molecule microarray, residues 44-93, 635 nm fluorescence (AID 1108); conditions: small-molecule microarray binding, fluorescence 635 nm; higher = more signal;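 further: E7 fragment applied at 1 µg/mL in TBST for 1 h at 4 C; score combines spot fluorescence with its signal to noise ratio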
Kindly state composite z-score for each of the entries shown.
One number for each entry.

These recorded examples may help you get a feel for the data.
compound	reported_measurement
[N-]=[N+]=Nc1ccccc1[C@@H]1OC(c2ccc(OCCCO)cc2)=N[C@]1(Cc1ccccc1)C(=O)N1CCOCC1	1.44
O=C(c1ccccc1)N1C(=O)[C@]2(COC(c3ccc(OCCCO)cc3)=N2)Cc2ccccc21	1.04
C[N+](C)(C)CCCCCCNC(=O)[C@@H]1C[C@@H]2C(=O)N[C@@H](Cc3ccccc3)C(=O)N2[C@@H]1c1cccc(OCCO)c1	0.44

Value sought for every listed compound: composite z-score.
1. O=C1O[C@H](c2ccccc2)[C@H](c2ccccc2)N2[C@H]1[C@@H](C(=O)N1CCCCCCC1)[C@]1(C(=O)Nc3ccc(C#CC4=CCCCC4)cc31)[C@H]2c1ccc(OCCO)cc1
2. O=C1c2ccccc2[C@](Cc2ccccc2I)(C(=O)NCCN2CCOCC2)[C@H](c2ccc(CO)cc2)N1C1CCCCC1
3. O=C1O[C@H](c2ccccc2)[C@H](c2ccccc2)N2[C@H]1[C@@H](C(=O)N1CCCCCCC1)[C@]1(C(=O)Nc3ccc(C#CCCO)cc31)[C@H]2c1ccccc1OCCO
4. NC(=O)N1C(=O)C2C(C1=O)C1C=C(c3ccc(CO)cc3)C2C(c2cccs2)N1Cc1cccc(OC(F)(F)F)c1 (configuration not stated)

1: 1.54; 2: 0.994; 3: 1.62; 4: 0.142

The values you see were collected from PubChem BioAssay.
